Checkbox rule: melting point lower than 100 °C = Condition met; melting point not lower than 100 °C = Condition not met.

Known results for compounds:
O=C(O)c1ccccc1Cc1ccccc1 | Condition not met
COc1ccc(OC)c(Cl)c1 | Condition met
COc1ccc2c(c1)c(C=O)cn2C | Condition not met
COc1ccc(-c2ccccc2)cc1NNC(=O)OC(C)C | Condition not met

# TODO verify melting point < 100 °C strictly for this compound: CC1COC(=O)O1 (configuration not stated) Condition met

# TODO verify melting point < 100 °C strictly for this compound: Nc1ccc(N=Nc2ccc([N+](=O)[O-])cc2)cc1 Condition not met

# TODO verify melting point < 100 °C strictly for this compound: O=[N+]([O-])C(Br)(Br)Br Condition met

# TODO verify melting point < 100 °C strictly for this compound: Cn1c(=O)c2c(ncn2CCOC(=O)c2cccnc2)n(C)c1=O Condition not met

# TODO verify melting point < 100 °C strictly for this compound: CC(=O)Nc1cc(NC(C)=O)c(C=Cc2ccccc2)cc1C=Cc1ccccc1 Condition not met

====

measuredParameter: melting point (°C)
Give bare numbers, in °C.

// worked examples, melting point included
O=C(NC(=O)c1c(F)cccc1F)Nc1ccc(Oc2ccc(C(F)(F)F)cc2Cl)cc1F | 167
O=C(O)C=Cc1cccc(C=CC(=O)O)c1 | 280
O=C(c1ccccc1)C1CNc2cc3c(cc2C1)CC(C(=O)c1ccccc1)CN3 (centres undefined) | 209
CNCCCC12CCC(c3ccccc31)c1ccccc12 | 92
Cc1ccc(S(=O)(=O)OCc2c(F)c(F)c(F)c(F)c2F)cc1 | 78
CC(C)=CCCC(C)=CC=CC(C)=CC=CC(C)=CC=CC=C(C)C=CC=C(C)C=CC1C(C)=CCCC1(C)C (centres undefined) | 140

Provide melting point values for the following items, in order.
1. CN(c1c(F)c(F)c(-c2c(F)c(F)c(F)c(F)c2F)c(F)c1F)N(O)O
2. CCCCCCCS
3. CN(c1ccccc1)c1ccccc1
4. C=C1C(=O)C23C(OC)CC4C5(C)CCCC4(COC5)C2C(OC(C)=O)CC1C3OC(C)=O (centres undefined)
5. CC(=O)c1cc(OC(F)(F)F)ccc1O

[140, -43, -7.6, 160, 30]

Provide melting point values for the following items, in order.
1. COc1ccc(-c2onc(C(=O)c3ccc([N+](=O)[O-])cc3)c2S(=O)(=O)c2ccccc2)cc1
2. CC(=O)Nc1ccc(Cl)cc1Cl
3. CC(C)CC=O

[128, 147, -51]

====

Give melting point for every item shown.
One number for each entry, in °C.

// worked examples, melting point included
c1ccc(P(c2ccccc2)c2ccc3ccccc3c2-c2c(P(c3ccccc3)c3ccccc3)ccc3ccccc23)cc1 | 283
CCOC(=O)c1c(-c2ccc(C)c(C)c2)csc1N | 82
Clc1ncccc1-c1ccc(Br)cn1 | 132
O=Cc1cc(I)c(O)c(I)c1 | 201
CC12CCC3c4ccc(OC(=O)c5ccccc5)cc4CCC3C1CCC2O (stereo unspecified) | 196
O=C(O)c1ccnc(N2CCOCC2)c1 | 180
Cc1ccc(S(=O)(=O)N2C/C(=C\c3cccc(Cl)c3)N(S(=O)(=O)c3ccc(C)cc3)c3ccccc32)cc1 | 145

Consider the record given below.
Specify measured melting point for C1CCN(CCN2CCCCC2)CC1 . -0.5

====

Give melting point for every item shown.
One number for each entry, in °C.

// worked examples, melting point included
COc1ccc(C(=O)/C=C/c2cccc(OC)c2OC)c(O)c1 | 99.5
Nc1c(Cl)cc([N+](=O)[O-])cc1Br | 175
COc1cc(N=C=O)cc(OC)c1OC | 40
COc1cc(O)ccc1C=O | 158
Cc1ccccc1N | -16.3
CN1CCC(N(Cc2ccccc2)c2ccccc2)CC1 | 114
COC(=O)c1ccc2cc[nH]c2c1 | 79
Cc1ccn2c(=O)c3ccccc3cc2c1 | 124

Consider the record given below.
Specify measured melting point for CC12CCC3c4ccc(OC(=O)Cc5ccc(N(CCCl)CCCl)cc5)cc4CCC3C1CCC2OC(=O)Cc1ccc(N(CCCl)CCCl)cc1 (configuration not stated) . 52.5

====

The label depends only on melting point: 1 (yes) if it is at least 200 °C, 0 (no) if it is smaller.

Known results for compounds:
COc1ccc2c(c1)C(=O)C2 | 0 (no)
O=[N+]([O-])c1cnc(NC2=NCCN2)s1 | 1 (yes)
O=C(O)CCC(=O)Nc1ccccc1 | 0 (no)
CC(O)CO (configuration not stated) | 0 (no)
COc1ccccc1C=C1C(=O)NN=C1c1c(O)c2ccccc2n(C)c1=O | 1 (yes)

Determine whether measured melting point meets or exceeds 200 °C for CCC1(CC)C(=O)NC(=O)NC1=O 0 (no)

Determine whether measured melting point meets or exceeds 200 °C for N=C1NC(=O)CS1 1 (yes)

====

measuredParameter: melting point (°C)
Give bare numbers, in °C.

// worked examples, melting point included
CC(=O)Nc1ccc2c(c1)Cc1cc([N+](=O)[O-])ccc1-2 | 262
O=C(O)Cc1ccccc1I | 116
CC1=C(C(=O)O)CCC1(C)C | 135
CCCCNc1cc(=O)oc2ccccc12 | 118
Oc1c(Cl)cc(Cl)cc1Br | 68

Provide melting point values for the following items, in order.
1. O=C(CCl)c1ccc(F)cc1
2. CCN(CC)CCOc1ccc(C(O)(Cc2ccc(Cl)cc2)c2ccc(C)cc2)cc1 (configuration not stated)
3. CC(C)N1CSc2nnc(-c3cccc([N+](=O)[O-])c3)n2C1

48
103
165

====

Give melting point for every item shown.

// worked examples, melting point included
Oc1ccc(-c2nnc3n2NC(c2ccco2)S3)cc1 (configuration not stated) | 230 °C
O=C(c1cccc2ccccc12)C(O)c1ccccc1 (configuration not stated) | 105 to 106 °C
CCCCCCCCCCOc1ccc(C(=O)O)cc1 | 114 °C
O[C@H]1CCC[C@@H]1O | 55 °C
CC(=O)OC1Cc2ccccc21 (configuration not stated) | 31 °C

Provide melting point values for the following items, in order.
1. CCN1C(=O)CSC1=S
2. Cc1coc2ccccc2c1=O

1. 38 °C
2. 68 °C

====

Give melting point for every item shown.
Give bare numbers, in °C.

// worked examples, melting point included
O=[N+]([O-])c1ccc2c(c1)=NC(=c1ccc(=C3N=c4cc([N+](=O)[O-])ccc4=C3O)cc1)C=2O | 360
COc1ccccc1-c1nnc2n1NCS2 | 123
Cc1ccccc1NCCNc1ccccc1C | 72
N#CC1CNc2ccccc2O1 (stereo not given) | 63
Cc1ccc(CO)cc1C | 64
CCCCOc1ccc(NC(=O)C(C(F)(F)F)C(F)(F)F)cc1 | 172
CC(C)=CCCC(C)=CC=CC(C)=CC=CC(C)=CC=CC=C(C)C=CC=C(C)C=CC=C(C)CCCC(C)(C)O | 171
CC(NC(=O)CCCCNC(=O)C12CC3CC(CC(C3)C1)C2)C(=O)NC(CCC(=O)O)C(N)=O (stereo not given) | 200
COc1ccc(C=CNC=O)cc1 | 132
Nc1ccc(Nc2ccc([N+](=O)[O-])cc2[N+](=O)[O-])cc1 | 188

Provide melting point values for the following items, in order.
1. Cc1nc2ccccc2c(C(=O)O)c1O
2. CCC(=O)c1ccc(OCc2ccccc2)cc1

1: 200; 2: 100

====

measuredParameter: melting point (°C)
Numbers only, in °C.

// worked examples, melting point included
c1ccc(-c2nnc3n2CN(c2ccccc2)CS3)cc1 | 205
N#Cc1ccnc(F)c1 | 32
CC(C)(O)C12CC3CC(CC(C3)C1)C2 | 75
N#Cc1ccc(Cl)nc1 | 118
Cc1nc(N(C)C)nc(OC(=O)N(C)C)c1C | 91.6
O=[N+]([O-])c1cc(F)c(F)cc1F | -11
Oc1ccc(Br)c(O)c1 | 103
CC=C(CC)C(=O)NC(N)=O | 198
O=Cc1c(F)c(F)c(F)c(F)c1F | 25.5
CC12CCC(O)CC1CCC1C2CCC2(C)C1CCC2(C)O (stereo unspecified) | 164

Provide melting point values for the following items, in order.
1. COc1ccc2c(OC)cccc2c1
2. O=C(c1cccs1)c1coc(-c2ccc(Cl)cc2)c1S(=O)(=O)c1ccccc1
3. O=C(CCCl)c1ccccc1
4. CCOC(=O)C(C)(C#N)c1ccccc1[N+](=O)[O-] (stereo unspecified)
5. C=C1CC(=O)O1
6. O=Nc1c(-c2ccc3ccccc3c2)nc2ncccn12
7. O=C(N[C@H](Cc1ccccc1F)C(=O)O)OCC1c2ccccc2-c2ccccc21
8. Nc1ccc(CO)cn1

1: 58.5; 2: 115; 3: 48.5; 4: 68; 5: -6.5; 6: 249; 7: 145; 8: 120

Provide melting point values for the following items, in order.
1. CC1=C(C(=O)O)C(c2ccccc2)N(C)C(=O)N1C (stereo unspecified)
2. Cc1ccc(Cl)c(Nc2ccccc2C(=O)O)c1Cl
3. Cc1cc(C(F)(F)F)n2nc(N)c(/N=N/c3ccc(Cl)cc3)c2n1
4. CC(C)(C)N(NC(=O)c1ccccc1)C(=O)c1ccccc1F

1: 165; 2: 257; 3: 250; 4: 184

Provide melting point values for the following items, in order.
1. Nc1ccccc1SC(=O)c1ccccc1
2. S=C=Nc1ccc(N=Nc2ccccc2)cc1
3. CC1=NN(c2ccccc2)C(=O)/C1=N\Nc1cccc(C(F)(F)F)c1
4. CC1CCS(=O)(=O)C1 (stereo unspecified)

[105, 97, 171, 1]
